Target: T1, cynomolgus monkey IL-33 expressed with a C-terminal hexahistidine tag (cynomolgus monkey)
T1 construct: also called MfIL-33-6His; Mf-IL-33-6His
T1 chain: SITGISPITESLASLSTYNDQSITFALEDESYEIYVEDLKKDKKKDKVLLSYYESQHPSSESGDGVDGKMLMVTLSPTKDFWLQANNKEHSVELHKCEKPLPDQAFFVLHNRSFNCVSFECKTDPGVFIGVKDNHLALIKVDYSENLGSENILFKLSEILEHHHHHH
Assay: competition ELISA, 150 pM MfIL-33-6His on coated hST2-hFc
Catalogue of % Maximum blocking readings, one per entry.
Write the answer as a number in %, unit excluded.

[[record]]
binder = "H4H9670P (antibody, V domains shown, Human IgG4 Fc (H4H)) VH: EVQLVESGGGLVQPGGSLRLSCAASGFTLSSYAMSWVRQAPGKGLEWVSAISGSGGSTYYADSVKGRFTISRDNSKNSLYLQLNSLRAEDTAVYYCAKTLYTTSWYGGFQHWGQGTLVTVSS VL: DIQMTQSPSSVSASIGDRVTITCRASQGISSWLAWYQQKPGKVPKLLIYAASSLQSGFPSRFSGSGSGTDFTLTISSLQPEDFATYYCQQTHSFPWTVGQGTKVEIK"
measured_number = 69

[[record]]
binder = "H4H9662P (antibody, V domains shown, Human IgG4 Fc (H4H)) VH: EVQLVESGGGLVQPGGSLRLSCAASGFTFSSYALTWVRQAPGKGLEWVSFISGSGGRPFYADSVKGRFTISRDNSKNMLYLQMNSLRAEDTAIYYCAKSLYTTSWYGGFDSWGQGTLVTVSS VL: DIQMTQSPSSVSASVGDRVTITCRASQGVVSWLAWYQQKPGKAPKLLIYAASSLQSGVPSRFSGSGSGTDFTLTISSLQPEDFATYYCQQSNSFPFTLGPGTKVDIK"
measured_number = 87

[[record]]
binder = "H4H9659P (antibody, human IgG4, V domains shown, Human IgG4 Fc (H4H)) VH: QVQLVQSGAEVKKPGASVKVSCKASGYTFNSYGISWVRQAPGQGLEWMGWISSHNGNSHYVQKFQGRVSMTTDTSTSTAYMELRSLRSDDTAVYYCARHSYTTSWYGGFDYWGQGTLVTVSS VL: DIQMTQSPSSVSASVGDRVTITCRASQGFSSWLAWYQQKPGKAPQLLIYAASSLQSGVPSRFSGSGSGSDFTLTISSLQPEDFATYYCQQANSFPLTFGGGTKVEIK"
measured_number = 92


Prompt: Fill in the blank: the reported % Maximum blocking of H4H9672P (antibody, human IgG4, V domains shown, Human IgG4 Fc (H4H)) VH: EVQLVESGGGLVQPGGSLRLSCAASGFTLRSYVMYWVRQGPGKGLEGVSGISGSSGGTYYTDSVKGRFTISRDNSKNTLFLQMNSLRAEDTAVYFCARSVYSTTWYGGFQHWGQGTLVTVSS VL: DIQMTQSPSSVSVSVGDRVTITCRASQVISSWLAWYQLKPGKAPKLLIYAASSLQSGVPSRFSGSGSGTDFTLTISGLQPEDFAVYYCQQTNSFPLTFGGGTKVEIK is ____.
Completion: 48

Prompt: Fill in the blank: the reported % Maximum blocking of H4H9665P (antibody, human IgG4, V domains shown, Human IgG4 Fc (H4H)) VH: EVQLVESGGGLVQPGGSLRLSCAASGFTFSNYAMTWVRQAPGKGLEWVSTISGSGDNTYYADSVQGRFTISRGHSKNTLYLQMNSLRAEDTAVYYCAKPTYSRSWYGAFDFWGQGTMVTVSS VL: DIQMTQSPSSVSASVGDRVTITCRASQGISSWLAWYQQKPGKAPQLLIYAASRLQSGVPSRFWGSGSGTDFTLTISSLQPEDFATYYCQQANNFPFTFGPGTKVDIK is ____.
Completion: 81

Prompt: Fill in the blank: the reported % Maximum blocking of H4H9664P (antibody, human IgG4, V domains shown, Human IgG4 Fc (H4H)) VH: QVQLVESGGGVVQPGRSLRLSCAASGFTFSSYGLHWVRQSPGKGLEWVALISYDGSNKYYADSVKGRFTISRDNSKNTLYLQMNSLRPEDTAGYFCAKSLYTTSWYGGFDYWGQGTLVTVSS VL: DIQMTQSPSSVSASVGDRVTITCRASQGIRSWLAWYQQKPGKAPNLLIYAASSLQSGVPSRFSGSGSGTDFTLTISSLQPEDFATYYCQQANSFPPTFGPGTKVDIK is ____.
Completion: 67
